Every entry's value here was drawn from ChEMBL document CHEMBL5042543.

Target: P2Y purinoceptor 14 (Mus musculus, UniProt Q9ESG6)
Sequence (Q9ESG6 whole entry): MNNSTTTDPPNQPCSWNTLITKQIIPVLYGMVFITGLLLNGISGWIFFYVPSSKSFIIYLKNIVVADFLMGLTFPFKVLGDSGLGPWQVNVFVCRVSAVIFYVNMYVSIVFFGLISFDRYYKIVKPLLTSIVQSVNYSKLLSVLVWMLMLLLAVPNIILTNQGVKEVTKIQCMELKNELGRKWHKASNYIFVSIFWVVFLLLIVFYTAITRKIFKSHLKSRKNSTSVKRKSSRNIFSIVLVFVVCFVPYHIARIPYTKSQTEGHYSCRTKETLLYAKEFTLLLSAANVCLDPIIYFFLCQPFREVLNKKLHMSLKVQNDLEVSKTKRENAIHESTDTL
Assay: Inhibition of fluorescent antagonist binding to mouse P2Y14R expressed in HEK293 cells preincubated for 30 mins followed by addition of 6-amino-9-(2-carboxy-4-((6-(4-(4-(4-(4-(3-carboxy-6-(4-(trifluoromethyl)phenyl)naphthalen-1-yl)phenyl)piperidin-1-yl)butyl)-1H-1,2,3-triazol-1-yl)hexyl)carbamoyl)phenyl)-3-iminio-5-sulfo-3H-xanthene-4-sulfonate incubated for 30 mins by BD FACSCalibur flow …

Compound	Target Entity	Units Of Measure	IC50
O=C(O)c1cc(-c2ccc([C@@H]3C[C@@H]4C[C@H]3CN4)cc2)c2ccc(-c3ccc(C(F)(F)F)cc3)cc2c1	P2Y purinoceptor 14 (Mus musculus, UniProt Q9ESG6)	nM	13.4
O=C(O)c1cc(-c2ccc([C@@H]3C[C@H]4CN[C@@H]3C4)cc2)c2ccc(-c3ccc(C(F)(F)F)cc3)cc2c1	P2Y purinoceptor 14 (Mus musculus, UniProt Q9ESG6)	nM	90.9
O=C(O)c1cc(-c2ccc(C3(O)[C@H]4CC[C@H]3CNC4)cc2)c2ccc(-c3ccc(C(F)(F)F)cc3)cc2c1 (stereo partly drawn)	P2Y purinoceptor 14 (Mus musculus, UniProt Q9ESG6)	nM	15.5

====

Listing: half-life of selected compounds
Assay: Half life in Wistar rat at 0.5 mg/kg, iv
Type: ADME, organism-based
Settings: in vivo

Entry Smiles	Units Of Measure	half-life
O=C(O)c1cc(-c2ccc([C@@H]3C[C@@H]4C[C@H]3NC4=O)cc2)c2ccc(-c3ccc(C(F)(F)F)cc3)cc2c1	h	2.11
O=C(O)c1cc(-c2ccc([C@H]3C[C@H]4C[C@@H]3CN4)cc2)c2ccc(-c3ccc(C(F)(F)F)cc3)cc2c1	h	7.24

====

Listing: Ki of selected compounds
Target: Sigma non-opioid intracellular receptor 1 (Homo sapiens)
Sequence (Q99720 whole entry): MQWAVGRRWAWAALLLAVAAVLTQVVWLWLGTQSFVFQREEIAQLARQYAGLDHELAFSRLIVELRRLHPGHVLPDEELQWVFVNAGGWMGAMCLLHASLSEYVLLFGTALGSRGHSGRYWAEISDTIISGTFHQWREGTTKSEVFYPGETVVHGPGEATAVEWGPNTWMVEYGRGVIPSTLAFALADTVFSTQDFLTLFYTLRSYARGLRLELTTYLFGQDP
Test: Inhibition of sigma 1 receptor (unknown origin) assessed as binding constant
Measured Endpoint: Ki (µM)

Compound	Target Entity	Measured Endpoint	Recorded Value
O=C(O)c1cc(-c2ccc([C@@H]3C[C@@H]4C[C@H]3CN4)cc2)c2ccc(-c3ccc(C(F)(F)F)cc3)cc2c1	Sigma non-opioid intracellular receptor 1 (Homo sapiens)	Ki	2.1
N[C@H]1C[C@@H](CO)[C@H](c2ccc(-c3cc(C(=O)O)cc4cc(-c5ccc(C(F)(F)F)cc5)ccc34)cc2)C1	Sigma non-opioid intracellular receptor 1 (Homo sapiens)	Ki	1.3
CN(C)C(=O)COC(=O)c1cc(-c2ccc([C@@H]3C[C@@H]4C[C@H]3NC4=O)cc2)c2ccc(-c3ccc(C(F)(F)F)cc3)cc2c1	Sigma non-opioid intracellular receptor 1 (Homo sapiens)	Ki	6.9
CC(=O)N1C[C@@H]2C[C@H]1C[C@H]2c1ccc(-c2cc(C(=O)O)cc3cc(-c4ccc(C(F)(F)F)cc4)ccc23)cc1	Sigma non-opioid intracellular receptor 1 (Homo sapiens)	Ki	4.2
O=C(O)c1cc(-c2ccc([C@H]3C[C@H]4C[C@@H]3NC4=O)cc2)c2ccc(-c3ccc(C(F)(F)F)cc3)cc2c1	Sigma non-opioid intracellular receptor 1 (Homo sapiens)	Ki	2.6
O=C(O)c1cc(-c2ccc([C@@H]3C[C@@H]4C[C@H]3C(=O)N4)cc2)c2ccc(-c3ccc(C(F)(F)F)cc3)cc2c1	Sigma non-opioid intracellular receptor 1 (Homo sapiens)	Ki	3.2
O=C(O)c1cc(-c2ccc(C3(O)[C@H]4CC[C@H]3CNC4)cc2)c2ccc(-c3ccc(C(F)(F)F)cc3)cc2c1 (some centres not stated)	Sigma non-opioid intracellular receptor 1 (Homo sapiens)	Ki	1.7
